Values compiled from PubChem BioAssay (NCI).

# System: HCT-15 colon
# MEASUREMENT_DESCRIPTION: NCI tumour cell line growth inhibition, 48 h; in the data active = GI50 below about 0.43 µM; inactive = the rest
Hi there, use one of these labels in your reply, thanks! active, inactive

Observe how each entry below is paired with its result.
MOLECULE	TESTED_ON	CLASSIFICATION
COCO[C@@H]1CC2C=Nc3cc(OCc4ccccc4)c(OC)cc3C(=O)N2C1 (stereo not given in full)	HCT-15 colon	inactive
CCCN(CCC)c1ccc(/C=N/NC(=O)c2cccnc2)cc1	HCT-15 colon	inactive
COc1cc(CCNc2nc3cc(N)cc(N)c3nc2-c2ccccc2)cc(OC)c1	HCT-15 colon	inactive
C/C=C1\C[C@@H]2C(OC)Nc3cc(O)c(OC)cc3C(=O)N2C1 (stereo not given in full)	HCT-15 colon	active
N=C(N)c1ccc(-c2ccc(-c3ccc(Cl)c(Cl)c3)o2)nc1	HCT-15 colon	inactive

Ask: Tell me the assay call for "O=C1CCCC(=O)C1C(=O)c1ccc(C(F)(F)F)cc1[N+](=O)[O-]" please.
Result: inactive
